Measured Endpoint: melting point

Reference set (6 entries):
• O=C1CCC2(CCN(Cc3ccc4c(c3)Nc3nccnc3S4)CC2)O1 = 199 to 203 °C
• O=C(O)CNC1CCN(Cc2ccc3c(c2)Nc2nccnc2S3)CC1 = 206 to 208 °C
• O=S(=O)(NC1CCN(Cc2ccc3c(c2)Nc2nccnc2S3)CC1)c1ccccc1 = 157 to 158 °C
• O=C(O)C1(c2ccc(O)cc2)CCN(Cc2ccc3c(c2)Nc2nccnc2S3)CC1 = 260 to 262 °C
• Cc1nc2cncnc2n1Cc1ccc2c(c1)Nc1nccnc1S2 = 191 to 193 °C
• c1ccc(-c2cn(Cc3ccc4c(c3)Nc3nccnc3S4)cn2)cc1 = 216 to 218 °C

Below: the item to evaluate.
Summary for this compound, "OCCC1CCN(Cc2ccc3c(c2)Nc2nccnc2S3)CC1" : melting point is 148 to 152 °C
